# protocolSummary: Selectivity index, ratio of CC50 for cytotoxicity against human Huh7.5 cells to EC50 for antiviral activity against Hepatitis C virus infected in human Huh7.5 cells
# Type: toxicity, cell-based
# conditionSet: read-out: Ratio CC50/EC50
Use 20 as the dividing line for selectivity ratio, with the line itself on the class 1 side and lower values as class 0.

In plain terms: is recorded selectivity ratio at least 20 for CN1CCN(Cc2ccc(NC(=O)c3ccc(OCCCCl)c(C(F)(F)F)c3)cc2C(F)(F)F)CC1 ?
class 1

Decide: selectivity ratio of CC(C)Oc1ccc(C(=O)Nc2ccc(N(C)C)cc2)cc1NC(=O)C(C)Br (centres undefined) >= 20?
class 0

API: above_or_equal(metric=selectivity ratio, cutoff=20) for item CC(C)Oc1ccc(C(=O)Nc2ccc(CN3CCN(C)CC3)c(C(F)(F)F)c2)cc1N
class 0

Does CCC(=O)Nc1cc(C(=O)Nc2ccc(CN3CCN(C)CC3)c(C(F)(F)F)c2)ccc1OC have a reported selectivity ratio of at least 20?
class 1

# check: selectivity ratio of CCC(=O)Nc1cc(C(=O)Nc2ccc(OC)cc2)ccc1OC is greater than or equal to 20
class 1

API: above_or_equal(metric=selectivity ratio, cutoff=20) for item COc1ccc(NC(=O)c2ccc(OCCCN(C)C)c([N+](=O)[O-])c2)cc1
class 0

Check this molecule for selectivity ratio at or above 20: CCC(=O)Nc1cc(C(=O)Nc2ccc(OC)cc2)ccc1OCCCCl
class 1

State whether the measured selectivity ratio reaches 20, counting equality as reaching it, for CN1CCN(Cc2ccc(NC(=O)c3ccc(OCCCCCl)c([N+](=O)[O-])c3)cc2C(F)(F)F)CC1
class 1

Reported selectivity ratio reaches at least 20 for CN1CCN(Cc2ccc(NC(=O)c3ccc(OCCCCl)c([N+](=O)[O-])c3)cc2C(F)(F)F)CC1 ?
class 1

====

# Test system: Hepatitis C virus
# protocolSummary: Antiviral activity against Hepatitis C virus infected in human Huh7.5 cells assessed as inhibition of viral replication incubated for 72 hrs by qRT-PCR analysis
# Assay type: functional, organism-based, Hepacivirus hominis
# conditionSet: Huh7.5, 72 h
readoutType: log10 EC50 (log10 of the value in nM)
Please be aware that the numbers have been log10-transformed from EC50 in nM.

The measured log10 EC50 associated with CCOc1ccc(C(=O)Nc2ccc(OC)cc2)cc1NC(=O)CC reads 3.17

The value of log10 EC50 measured for the compound CN1CCN(Cc2ccc(NC(=O)c3ccc(OCCCCl)c(Cl)c3)cc2C(F)(F)F)CC1 turned out to be 2.76

Sample CN1CCN(Cc2ccc(NC(=O)c3ccc(OCCCCCCl)c([N+](=O)[O-])c3)cc2C(F)(F)F)CC1 ; log10 EC50 observed: 1.78

Measured log10 EC50, CCC(=O)Nc1cc(C(=O)Nc2ccc(-c3cc4ccccc4[nH]3)cc2)ccc1OC : 3.87

The compound listed as CN1CCN(Cc2ccc(NC(=O)c3ccc(OCCCCl)c(F)c3)cc2C(F)(F)F)CC1 has a reported log10 EC50 of 2.69

====

Give measured selectivity ratio for each item. Keep answers brief.
# protocolSummary: Selectivity index, ratio of CC50 for cytotoxicity against human Huh7.5 cells to EC50 for antiviral activity against Hepatitis C virus infected in human Huh7.5 cells
# Format: toxicity, cell-based
# conditionSet: read-out: Ratio CC50/EC50

Value of selectivity ratio reported for the molecule CCC(=O)Nc1cc(C(=O)Nc2ccc(OC)cc2)ccc1OC(C)C is 103

For COc1ccc2c(O[C@@H]3C[C@H]4C(=O)N[C@]5(C(=O)NS(=O)(=O)C6CC6)CC5/C=C\CCCCN(C)C(=O)[C@@H]4C3)cc(-c3nc(C(C)C)cs3)nc2c1C (single isomer, unassigned) the molecule record lists selectivity ratio as 4760

The molecule CN1CCN(Cc2ccc(NC(=O)c3ccc(OCCCCl)c(S(N)(=O)=O)c3)cc2C(F)(F)F)CC1 showed selectivity ratio equal to 6.2

COc1ccc(NC(=O)c2ccc(OC(C)C)c([N+](=O)[O-])c2)cc1 has a reported selectivity ratio of 8

Entry CC1CN(Cc2ccc(NC(=O)c3ccc(OCCCCl)c([N+](=O)[O-])c3)cc2C(F)(F)F)CC(C)O1 (stereo unspecified) , selectivity ratio reported as 13.3

Per the records, this molecule ( O=C(Nc1ccc(CN2CC(C(=O)O)C2)c(C(F)(F)F)c1)c1ccc(OCCCCl)c([N+](=O)[O-])c1 ) has selectivity ratio equal to > 42
